test system: ENR+CD organoids (ISC to Paneth cell differentiation); test: Primary screen: CCh-stimulated lysozyme secretion LYZ.S, 2.5-D 384-well ENR+CD organoid differentiation; format: cell-based, mouse; settings: primary screen, dose 2.00 uM, FC relative to plate median
Counter-ions that a name gives are not always drawn.
Listed compounds paired with reported Dose.FC.LYZ.S
# output: bare number, implied unit log2 fold change

Worked examples follow.
# Compound, Dose.FC.LYZ.S / log2 fold change
records = [
    ("CC(NC(=O)c1ccccc1/N=C/c1c(O)ccc2ccccc12)c1ccccc1 (centres unmarked) [Sirtinol]", 0.028),
    ("COc1cc2c(cc1OC)CN(CCc1ccc(NC(=O)c3cc(OC)c(OC)cc3NC(=O)c3cnc4ccccc4c3)cc1)CC2 [Tariquidar]", 0.059),
    ("Cc1cc(Nc2ccc(NC(=O)c3ccc(Nc4ccnc5ccccc45)cc3)cc2)nc(N)n1 [SGI-1027]", 0.094),
    ("CC(C)NCC(O)COc1cccc2ccccc12 (centres unmarked) [Propranolol HCl]", 0.091),
    ("CNC(=O)c1cc(Oc2ccc(NC(=O)Nc3ccc(Cl)c(C(F)(F)F)c3)cc2)ccn1 [Sorafenib]", 0.014),
    ("CN[C@H]1CC[C@@H](c2ccc(Cl)c(Cl)c2)c2ccccc21 [Sertraline HCl]", 0.023),
]

## Input Write down the reported Dose.FC.LYZ.S (system: ENR+CD organoids (ISC to Paneth cell differentiation)) of Cc1cn([C@H]2C=C[C@@H](CO)O2)c(=O)[nH]c1=O [Stavudine (d4T)]
## Output −0.003

## Input Lab note: record Dose.FC.LYZ.S of Cc1nnc(C(=O)NC(C)(C)c2nc(C(=O)NCc3ccc(F)cc3)c(O)c(=O)n2C)o1 [Raltegravir (MK-0518)] tested on ENR+CD organoids (ISC to Paneth cell differentiation).
## Output 0.122
